These measurements were taken from the NIST ThermoML archive (doi:10.1021/je0604277).

settings: 298.15 K; 101 kPa; Liquid mixture 1; rotated drop method
Catalogue of log10 of interfacial tension values
Form field - Quantity: interfacial tension; Unit: mN/m; Scale: log10

Field: example entries. Status: answers known.
compound: CCCCn1cc[n+](C)c1.F[P-](F)(F)(F)(F)F [1-butyl-3-methylimidazolium hexafluorophosphate] + CCCCC
attribute measured: log10 of interfacial tension
measurement: 1.14

compound: CCCCCCCCCCCCO [dodecan-1-ol] + CCCCn1cc[n+](C)c1.F[P-](F)(F)(F)(F)F
attribute measured: log10 of interfacial tension
measurement: 0.94

compound: CCCCn1cc[n+](C)c1.F[P-](F)(F)(F)(F)F [1-butyl-3-methylimidazolium hexafluorophosphate] + CCCCO
attribute measured: log10 of interfacial tension
measurement: 0.67

compound: CCCCn1cc[n+](C)c1.F[P-](F)(F)(F)(F)F [1-butyl-3-methylimidazolium hexafluorophosphate] + CCCCCCCCCCO
attribute measured: log10 of interfacial tension
measurement: 0.88

compound: CCCCn1cc[n+](C)c1.F[P-](F)(F)(F)(F)F [1-butyl-3-methylimidazolium hexafluorophosphate] + CCO
attribute measured: log10 of interfacial tension
measurement: 0.09

Record request: log10 of interfacial tension value, item CCCCn1cc[n+](C)c1.F[P-](F)(F)(F)(F)F [1-butyl-3-methylimidazolium hexafluorophosphate] + CCc1ccccc1 0.60

Record request: log10 of interfacial tension value, item CCCCn1cc[n+](C)c1.F[P-](F)(F)(F)(F)F [1-butyl-3-methylimidazolium hexafluorophosphate] + CCCCCC 1.13

Record request: log10 of interfacial tension value, item CCCCn1cc[n+](C)c1.F[P-](F)(F)(F)(F)F [1-butyl-3-methylimidazolium hexafluorophosphate] + CCC(=O)O 0.52

Record request: log10 of interfacial tension value, item CCCCn1cc[n+](C)c1.F[P-](F)(F)(F)(F)F [1-butyl-3-methylimidazolium hexafluorophosphate] + O 1.00

Record request: log10 of interfacial tension value, item CCCCn1cc[n+](C)c1.F[P-](F)(F)(F)(F)F [1-butyl-3-methylimidazolium hexafluorophosphate] + CCCCOC(C)=O -0.36
